# Run Description: GHS categories as the set defines them, by LD50: 1 up to 5, 2 up to 50, 3 up to 300, 4 up to 2000, 5 above 2000 mg/kg
# Condition Details: rat; in vivo; po
Catalogue of compounds with associated GHS category
Lab note: jot down the number only; don't add units.

// below: answered compounds
CC(C)Br :: 5
CCCCC(=O)O[C@]1(C(=O)CO)[C@@H](C)C[C@H]2[C@@H]3CCC4=CC(=O)C=C[C@]4(C)[C@@]3(F)[C@@H](O)C[C@@]21C :: 5
O=C(NC(=O)c1c(F)cccc1F)Nc1ccc(Oc2ccc(C(F)(F)F)cc2Cl)cc1F :: 5
C[N+](C)(C)NCCC(=O)[O-] :: 5
O=C(O)Cc1ccc(OCC(O)CO)c(Cl)c1 (stereo not drawn) :: 5

If you can, please state the reported GHS category value of OC(Cc1ccccc1Cl)(Cn1[nH]cnc1=S)C1(Cl)CC1 (stereo not drawn) .
5

C[C@@]12CC[C@@H]3[C@H](CC=C4C[C@H](OS(=O)(=O)O)CC[C@]43C)[C@H]1CCC2=O (racemic) , same question.
5

* * *

# Run Description: GHS categories as the set defines them, by LD50: 1 up to 5, 2 up to 50, 3 up to 300, 4 up to 2000, 5 above 2000 mg/kg
# Condition Details: rat; in vivo; po
Recorded Endpoint: GHS category

// below: answered compounds
COc1cc(OC)nc(NC(=O)NS(=O)(=O)c2ncccc2C(=O)N(C)C)n1 :: 5
CCOC(=O)COc1ccc2c(=O)cc(-c3ccccc3)oc2c1 :: 5
CN1C(C(=O)Nc2ccccn2)=C(O)c2sc(O)cc2S1(=O)=O :: 3
FC(F)(Cl)C(Cl)(Cl)Cl :: 5
Cc1c(C)c([N+](=O)[O-])c(C(C)(C)C)c([N+](=O)[O-])c1C :: 5

If you can, please state the reported GHS category value of CC(C)C(O)C(C)(C)CO (stereo unspecified) .
5

* * *

Catalogue of molecules with associated GHS category
# Run Description: GHS categories as the set defines them, by LD50: 1 up to 5, 2 up to 50, 3 up to 300, 4 up to 2000, 5 above 2000 mg/kg
# Condition Details: rat; in vivo; po
Lab note: jot down the number only; don't add units.

CCOc1ccc(C2(C(=O)OC(C#N)c3cccc(Oc4ccccc4)c3)CC2(Cl)Cl)cc1 (configuration not stated) :: 5
C=C(C)C(=O)OCC(CC)CCCC (configuration not stated) :: 5
O=C1C=CC(=O)N1c1ccc(SSc2ccc(N3C(=O)C=CC3=O)cc2)cc1 :: 5
CC(C)(C)C1CCC(OC(=O)Cl)CC1 (configuration not stated) :: 5
CCOC(=O)C(=O)Nc1cc(SC)nc(C)n1 :: 4

If you can, please state the reported GHS category value of `NS(=O)(=O)c1cc2c(cc1Cl)N=C(CSCc1ccccc1)NS2(=O)=O` .
5

`OCC(CBr)(CBr)CBr` , same question.
5

`C[N+](C)(CCO)CC(O)C[N+](C)(C)CCO` , same question.
4

`CCC(=O)OC/C=C(/C)CCC=C(C)C` , same question.
5

`CC(C)=CCN(CC=C(C)C)CCC(C#N)(CCN(CC=C(C)C)CC=C(C)C)c1cccc2ccccc12` , same question.
4

`CC[N+](C)(CC)CCSC1=Nc2ccccc2N=C(c2ccc(Sc3ccccc3)cc2)C1` , same question.
5

`C=C(C)c1cccc(C(=C)C)c1` , same question.
5
